Listed here: items and their measured EC50.
target desc: T1, human RANK-L (human, UniProt O14788 140-317, limits assumed)
T1 construct: Soluble protein, used coated, biotinylated or labelled in ELISA, AlphaScreen, FMAT and Biacore; also called hRANK-L; soluble human RANK-L
T1 sequence (looked up): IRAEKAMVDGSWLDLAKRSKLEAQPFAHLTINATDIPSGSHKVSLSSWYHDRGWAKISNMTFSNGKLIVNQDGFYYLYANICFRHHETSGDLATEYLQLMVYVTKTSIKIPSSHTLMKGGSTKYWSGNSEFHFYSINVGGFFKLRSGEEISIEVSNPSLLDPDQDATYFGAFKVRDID
measurement description: ELISA (ED50), biotin-hRANK-L on neutravidin
measurement name: EC50 (nM)

binder	display unit	obs value
RANKL15 (VHH, not shown: small tags and cut ends) VHH: EVQLVESGGGLVQAGGSLRLSCAAAGGTFRNYVMGWFRQAPGKEREFVTAISTGGSWTGYVDSVKDRFTISRDNTKNTVYLQMASLKPEDTAVYYCAATTPATTYLPRSERQYDYWGQGTQVTVSS	nM	0.266
RANKL3 (VHH, not shown: small tags and cut ends) VHH: EVQLVESGGKLVQAGGSLRLSCAVSGRTSSIYNMAWFRQGPGKGRESVGRIYWSDDNTYYADSVKGRFTISRDNATNTVYLQMNSLKPEDTAVYYCAGKTTKWSLEYDYWGQGTQVTVSS	nM	0.568
RANKL19 (VHH, not shown: c-myc and His6 tags) VHH: EVQLVESGGGLVQAGDSLRLSCAASGRTVTMGWFRQAPGKEREFVASITGSGSVTNYADSVKGRFTISRDNAKNTVFLQMNSLKPEDTAVYYCAAYLPSPYYSSYYDSTKYEYWGQGTQVTVSS	nM	0.506
RANKL9 (VHH, not shown: c-myc and His6 tags) VHH: EVQLVESGGGLVQAGGSLRLTCAASGRTFRSYAMGWFRQAPGKEREFVAAINYSGGSTNYADSVKGRFTISRDNAKNTLYLQMNSLEPEDTAVYYCAAGSGYASLSYYSTERAYTYWGQGTQVTVSS	nM	0.542
RANKL12 (VHH, not shown: c-myc and His6 tags) VHH: EVQLVESGGGWMQAGGSLRLSCAASGRTFTMAWFRQAPGKEREFVAAITGSGRSTYYTDSVKGRFTISRDNAKNTAYLQMKSLKPEDTAVYYCAGLRGLGLEYDSAKSYSYWGQGTQVTVSS	nM	0.399
RANKL14 (VHH, not shown: c-myc and His6 tags) VHH: EVQLVESGGGLVQAGGSLRLSCAASGRTSSYYTMSWFRQDPGKEREFVAAVPLSGNTYYADPVRGRFTISRDNAKNTADLQMNSLKPEDTAVYYCAARASGSIYNRGSYAYWGQGTQVTVSS	nM	0.574
RANKL1 (VHH, not shown: c-myc and His6 tags) VHH: EVQLVESGGGLVQAGGSLRLSCAVSGRTFSSSTMAWFRQPPGGERDFVASISTSGTRTLYADSVKGRFTISRDNAKSTGYLQMNSLKPEDTAVYFCAAVNRRGWEFWRLASGYDYWGLGAQVTVSS	nM	0.619
RANKL20 (VHH, not shown: c-myc and His6 tags) VHH: EVQLVESGGGLVQAGDSLRLSCAASGRTFTMGWFRQAPGTEREFVAAISGSGKITNYADSVKGRFTISRDHAKNTVFLQMDSLKPEDTAVYYCAGYLRSPYYSSFYDSAKYEYWGQGTQVTVSS	nM	0.306
